Biological target: Cannabinoid receptor 1 (Rattus norvegicus)
Sequence (P20272 whole entry): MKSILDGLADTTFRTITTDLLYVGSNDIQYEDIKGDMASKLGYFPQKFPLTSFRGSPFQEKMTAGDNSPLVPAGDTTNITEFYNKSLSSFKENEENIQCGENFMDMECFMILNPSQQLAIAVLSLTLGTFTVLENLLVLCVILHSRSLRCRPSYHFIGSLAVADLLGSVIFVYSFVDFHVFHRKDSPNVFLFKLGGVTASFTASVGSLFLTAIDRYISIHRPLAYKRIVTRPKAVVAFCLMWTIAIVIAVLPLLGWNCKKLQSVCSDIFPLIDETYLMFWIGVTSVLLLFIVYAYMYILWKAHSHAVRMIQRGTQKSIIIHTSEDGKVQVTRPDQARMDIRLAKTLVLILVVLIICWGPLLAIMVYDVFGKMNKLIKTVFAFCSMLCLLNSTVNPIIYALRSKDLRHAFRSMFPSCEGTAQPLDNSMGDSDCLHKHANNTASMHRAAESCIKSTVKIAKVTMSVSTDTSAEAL
Experiment: Antagonist activity at rat CB1 receptor
Metric name: IC50
Answer with the value and then the unit.

Enquiry: GET /values?readout=IC50&system=Cannabinoid receptor 1 (Rattus norvegicus)&item= Cc1c(/C=C/C(=O)NCc2cccc(Cl)c2)nn(-c2ccc(Cl)cc2Cl)c1-c1ccc(Cl)cc1
Return: 159 nM

====

Test: Cmax in rat at 10 mg/kg
Assay type: ADME, organism-based
Design: dose 10 mg/kg
Details: in vivo
Metric name: Cmax
Answers without a unit are incomplete; give the number and then its unit.

Enquiry: What value of measured Cmax is listed for CC1(C)C(=O)N(c2ccc(F)c(C(F)(F)F)c2)C(=O)C1Cc1ccc(F)cc1NC(=O)Nc1ccc(S(N)(=O)=O)cc1 (stereo unspecified) ?
Return: 430 nM
